pEC50 for assorted compounds
TARGET: human ferroportin (Homo sapiens)
Construct: luciferase reporter (read with the Nano-Glo Luciferase Assay System); expressed in transfected cells; host or cells: CHO cells, stably transfected, expression induced with doxycycline
Sequence (Q9NP59 whole entry): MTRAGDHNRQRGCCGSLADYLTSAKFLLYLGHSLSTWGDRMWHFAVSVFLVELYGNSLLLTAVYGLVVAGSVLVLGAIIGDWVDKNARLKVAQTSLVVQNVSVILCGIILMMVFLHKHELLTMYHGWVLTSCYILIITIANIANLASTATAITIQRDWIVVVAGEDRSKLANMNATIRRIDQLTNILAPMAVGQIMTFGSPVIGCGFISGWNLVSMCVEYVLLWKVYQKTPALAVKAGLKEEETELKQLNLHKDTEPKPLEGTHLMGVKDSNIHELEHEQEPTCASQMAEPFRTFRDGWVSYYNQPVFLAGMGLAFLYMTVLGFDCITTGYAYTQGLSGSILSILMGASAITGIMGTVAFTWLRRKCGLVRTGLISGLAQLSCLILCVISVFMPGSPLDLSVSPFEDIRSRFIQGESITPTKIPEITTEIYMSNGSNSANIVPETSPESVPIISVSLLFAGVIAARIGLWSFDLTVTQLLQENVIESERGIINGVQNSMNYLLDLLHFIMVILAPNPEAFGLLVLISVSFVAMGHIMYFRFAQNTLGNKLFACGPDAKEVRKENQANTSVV
ASSAY_PROTOCOL: Biological in-vitro ferroportin internalization assay (luciferase reporter)
Format: cell-based
CONDITION_DETAILS: average pEC50; stably-transfected CHO cell line expressing human ferroportin tagged to a luciferase reporter; 6 h incubation with test compound
READOUT: pEC50

INSERT INTO assay_data (compound, readout, result) VALUES
  ('COc1cnc(-c2nc3c(c(N(C)CC(=O)NC(C)(C)C)n2)CCC3)cc1OC [Compound 145]', 'pEC50', 6.9),
  ('CN(C)c1ccnc(-c2nc3c(c(N4CCCCCC4)n2)CCC3)c1 [Compound 13]', 'pEC50', 6.4),
  ('CCN1CC[C@@H](Oc2ccnc(-c3nc4c(c(N(C)CC(=O)NC(C)(C)C)n3)CCC4)c2)C1 [Compound 496]', 'pEC50', 8.0),
  ('COc1ccc(NC(=O)[C@@H](C)N(C)c2nc(-c3cc(OCCO)ccn3)nc3c2CCC3)cn1 [Compound 309]', 'pEC50', 8.1),
  ('COc1ccc(NC(=O)CN(C)c2nc(-c3cc(OC(F)F)ccn3)nc3c2CCC3)nc1 [Compound 217]', 'pEC50', 6.9),
  ('CN(CC(=O)NC(C)(C)C)c1nc(-c2cc(O[C@@H]3CCN(CCF)C3)ccn2)nc2c1CCC2 [Compound 497]', 'pEC50', 8.2),
  ('CN(CC(=O)NC1CCCCC1)c1nc(-c2ccccn2)nc2c1CCC2 [Compound 78]', 'pEC50', 7.4),
  ('CN(CC(=O)NC1(C)CCCC1)c1nc(-c2cn(C)cn2)nc2c1CCC2 [Compound 161]', 'pEC50', 7.4);
